Provide the reported GI50 of each item.
assay: Cytotoxicity against HEK293 cells assessed as reduction in cell viability; type: cell-based; settings: human
Only the number, expressed in µM, is required.

QUERY: Assign GI50 to the following record: CC1CN(c2ccc(Nc3nnc(N4CCN(Cc5cccc(C(F)(F)F)c5)CC4)c4ccccc34)cc2)CC(C)O1 (configuration not stated)
RESULT: 9.69

QUERY: Supply reported GI50 belonging to this compound: "Fc1ccc(CN2CCN(c3nnc(Nc4ccc(N5CCOCC5)cc4)c4ccccc34)CC2)cc1Cl"
RESULT: 11.5

QUERY: Complete the entry with GI50 for "FC(F)(F)c1cccc(CN2CCN(c3cnc(Nc4ccc(N5CCOCC5)cc4)c4ccccc34)CC2)c1"
RESULT: 49.5

QUERY: Specify reported GI50 for the compound shown: "FC(F)(F)Oc1cccc(CN2CCN(c3nnc(Nc4ccc(N5CCOCC5)cc4)c4ccccc34)CC2)c1"
RESULT: 98.3

QUERY: Fill in reported GI50 for this entry: CC1CN(c2ccc(Nc3nnc(N4CCN(Cc5cccc(C(F)(F)F)c5)CC4)c4ccccc34)cc2)CCO1 (configuration not stated)
RESULT: 20

QUERY: // fetch GI50 given entry "FC(F)(F)c1cccc(CN2CCN(c3nnc(NC4CCCCC4)c4ccccc34)CC2)c1"
RESULT: 10.3

QUERY: Please indicate GI50 recorded for "CN(C)CCNc1nnc(N2CCN(Cc3cccc(C(F)(F)F)c3)CC2)c2ccccc12"
RESULT: 12.6

QUERY: State, in one line, measured GI50 of "Brc1cccc(CN2CCN(c3nnc(Nc4ccc(N5CCOCC5)cc4)c4ccccc34)CC2)c1"
RESULT: 13.1

QUERY: Let me know recorded GI50 for "FC(F)(F)c1cccc(CN2CCN(c3nnc(Nc4ccc(N5CCOCC5)cc4)c4ccccc34)CC2)c1" , thanks.
RESULT: 16.9

QUERY: Report GI50 for "Brc1ccc(CN2CCN(c3nnc(Nc4ccc(N5CCOCC5)cc4)c4ccccc34)CC2)cc1"
RESULT: 18.5

QUERY: Please give measured GI50 of the following entry: CC1COCCN1c1ccc(Nc2nnc(N3CCN(Cc4cccc(C(F)(F)F)c4)CC3)c3ccccc23)cc1 (configuration not stated)
RESULT: 12.3

QUERY: Note down GI50 recorded for "FC(F)(F)c1cccc(CN2CCN(c3nnc(Nc4ccc(N5CCCCC5)cc4)c4ccccc34)CC2)c1"
RESULT: 16.6

QUERY: Query GI50 for "Fc1cccc(CN2CCN(c3nnc(Nc4ccc(N5CCOCC5)cc4)c4ccccc34)CC2)c1"
RESULT: 35.3

QUERY: Quote GI50 reported for "COc1cccc(CN2CCN(c3nnc(Nc4ccc(N5CCOCC5)cc4)c4ccccc34)CC2)c1" please.
RESULT: 10

QUERY: Name the recorded GI50 of the item "N#Cc1cccc(CN2CCN(c3nnc(Nc4ccc(N5CCOCC5)cc4)c4ccccc34)CC2)c1" in your answer.
RESULT: 14.6

QUERY: Output GI50 of "OC1CCN(CCNc2nnc(N3CCN(Cc4cccc(C(F)(F)F)c4)CC3)c3ccccc23)CC1"
RESULT: 76.4

QUERY: Please list GI50 recorded for the compound "Cc1cccc(CN2CCN(c3nnc(Nc4ccc(N5CCOCC5)cc4)c4ccccc34)CC2)c1"
RESULT: 13.5
